# Assay system: α1β2γ2L GABAAR (Rattus norvegicus, UniProt P62813+P63138)
# Sequence (P63138 25-474 limits assumed, one chain of several): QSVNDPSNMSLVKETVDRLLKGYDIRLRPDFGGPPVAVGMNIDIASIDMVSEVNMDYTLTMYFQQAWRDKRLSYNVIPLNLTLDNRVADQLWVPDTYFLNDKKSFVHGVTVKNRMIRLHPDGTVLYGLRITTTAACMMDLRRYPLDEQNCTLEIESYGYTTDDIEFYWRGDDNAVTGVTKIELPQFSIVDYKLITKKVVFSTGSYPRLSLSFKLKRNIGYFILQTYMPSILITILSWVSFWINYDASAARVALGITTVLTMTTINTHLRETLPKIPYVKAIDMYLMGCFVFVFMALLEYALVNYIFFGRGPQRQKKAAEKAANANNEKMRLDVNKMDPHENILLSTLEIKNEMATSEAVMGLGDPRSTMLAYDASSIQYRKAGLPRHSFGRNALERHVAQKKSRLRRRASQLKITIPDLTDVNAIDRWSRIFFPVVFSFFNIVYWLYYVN
# Test method notes: Two-electrode voltage clamp, concentration-response and mechanistic
# Format: cell-based, rat (β2 rat or human)
# Cond: read-out: EC50 for potentiation; wild-type; 2 μM GABA; Hill equation fit
Measured attribute: EC50 (µM)

molecule="CCC1=C[C@@H]2CN3CCc4c([nH]c5ccccc45)[C@@](C(=O)OC)(C2)[C@@H]13 [(+)-catharanthine, (+)-3,4-didehydrocoronaridine]" units_of_measure=µM measured_number=13.5

###

# Assay system: α1β2(R269A)γ2L GABAAR (Rattus norvegicus, UniProt P62813+P63138, R293A)
# Cond: β2(R269A); low GABA; Hill equation fit
Measured attribute: EC50 (µM)

compound="CCC1=C[C@@H]2CN3CCc4c([nH]c5ccccc45)[C@@](C(=O)OC)(C2)[C@@H]13 [(+)-catharanthine, (+)-3,4-didehydrocoronaridine]" units_of_measure=µM measured_number=9.3

###

# Assay system: α1β2(D282A)γ2L GABAAR (Rattus norvegicus, UniProt P62813+P63138, D306A)
# Cond: read-out: KCath (estimated affinity of (+)-catharanthine for the resting receptor); β2(D282A); low GABA (PA ~0.2); Eq. 1, NCath = 2; mean ± SEM, 5 oocytes
Measured attribute: Kd (µM)

compound="CCC1=C[C@@H]2CN3CCc4c([nH]c5ccccc45)[C@@](C(=O)OC)(C2)[C@@H]13 [(+)-catharanthine, (+)-3,4-didehydrocoronaridine]" measured_attribute=Kd measured_number=7.1

###

# Assay system: α1β2(N265S)γ2L GABAAR (Rattus norvegicus, UniProt P62813+P63138, N289S)
# Sequence (P62813 28-455): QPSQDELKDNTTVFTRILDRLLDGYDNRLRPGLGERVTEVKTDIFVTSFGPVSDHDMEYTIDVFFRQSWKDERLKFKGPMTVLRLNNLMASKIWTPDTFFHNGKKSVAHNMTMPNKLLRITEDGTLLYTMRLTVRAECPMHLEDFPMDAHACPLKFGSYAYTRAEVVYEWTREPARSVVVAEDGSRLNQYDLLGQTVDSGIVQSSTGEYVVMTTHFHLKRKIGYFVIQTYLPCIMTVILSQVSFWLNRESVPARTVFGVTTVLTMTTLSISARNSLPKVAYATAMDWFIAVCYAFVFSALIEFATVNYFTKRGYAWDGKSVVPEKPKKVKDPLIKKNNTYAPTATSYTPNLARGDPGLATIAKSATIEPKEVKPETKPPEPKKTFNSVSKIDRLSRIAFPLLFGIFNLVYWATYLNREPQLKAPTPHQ
# Sequence (P63138 25-474 N289S limits assumed): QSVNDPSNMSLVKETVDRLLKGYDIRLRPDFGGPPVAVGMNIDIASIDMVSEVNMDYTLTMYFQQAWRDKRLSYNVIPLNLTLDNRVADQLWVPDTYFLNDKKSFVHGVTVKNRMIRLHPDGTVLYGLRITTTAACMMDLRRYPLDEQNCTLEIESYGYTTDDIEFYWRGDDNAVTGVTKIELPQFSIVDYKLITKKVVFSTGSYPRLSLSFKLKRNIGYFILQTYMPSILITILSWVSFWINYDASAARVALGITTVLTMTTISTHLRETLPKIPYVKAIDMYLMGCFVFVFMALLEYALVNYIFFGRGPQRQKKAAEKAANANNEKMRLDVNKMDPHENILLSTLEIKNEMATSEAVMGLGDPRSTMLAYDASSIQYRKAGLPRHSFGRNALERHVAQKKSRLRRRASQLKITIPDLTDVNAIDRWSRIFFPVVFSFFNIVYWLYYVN
# Cond: β2(N265S); low GABA; Hill equation fit
Measured attribute: EC50 (µM)

compound="CCC1=C[C@@H]2CN3CCc4c([nH]c5ccccc45)[C@@](C(=O)OC)(C2)[C@@H]13 [(+)-catharanthine, (+)-3,4-didehydrocoronaridine]" assay_system="α1β2(N265S)γ2L GABAAR (Rattus norvegicus, UniProt P62813+P63138, N289S)" measured_number=17.7

###

# Assay system: α1β2γ2L GABAAR (Rattus norvegicus, UniProt P62813+P63138)
# Test method notes: Two-electrode voltage clamp, concentration-response and mechanistic
# Format: cell-based, rat (β2 rat or human)
# Cond: read-out: KCath (estimated affinity of (+)-catharanthine for the resting receptor); wild-type; 2 μM GABA background; fit to Eq. 1, NCath constrained to 2; mean ± SEM, 5 oocytes
Measured attribute: Kd (µM)

compound="CCC1=C[C@@H]2CN3CCc4c([nH]c5ccccc45)[C@@](C(=O)OC)(C2)[C@@H]13 [(+)-catharanthine, (+)-3,4-didehydrocoronaridine]" assay_system="α1β2γ2L GABAAR (Rattus norvegicus, UniProt P62813+P63138)" measured_attribute=Kd measured_number=29.4

###

# Assay system: α1β2(R269A)γ2L GABAAR (Rattus norvegicus, UniProt P62813+P63138, R293A)
# Cond: read-out: KCath (estimated affinity of (+)-catharanthine for the resting receptor); β2(R269A); low GABA (PA ~0.2); Eq. 1, NCath = 2; mean ± SEM, 5 oocytes
Measured attribute: Kd (µM)

compound="CCC1=C[C@@H]2CN3CCc4c([nH]c5ccccc45)[C@@](C(=O)OC)(C2)[C@@H]13 [(+)-catharanthine, (+)-3,4-didehydrocoronaridine]" measured_number=18.8

###

# Assay system: α1β2(K279A)γ2L GABAAR (Rattus norvegicus, UniProt P62813+P63138, K303A)
# Cond: read-out: KCath (estimated affinity of (+)-catharanthine for the resting receptor); β2(K279A); direct activation in the absence of GABA (PA,constitutive 0.22); Eq. 1, NCath = 2; 5 oocytes
Measured attribute: Kd

compound="CCC1=C[C@@H]2CN3CCc4c([nH]c5ccccc45)[C@@](C(=O)OC)(C2)[C@@H]13 [(+)-catharanthine, (+)-3,4-didehydrocoronaridine]" measured_attribute=Kd result="17.8 µM"
